# Assayed target: benzodiazepine site of the GABAA receptor
# Assay info: Ligand binding assay of Example 6 (3H-Ro15-1788 competition, purified rat cortical membranes)
# Cond: radioligand; previously determined, used in Cheng-Prusoff equation; read-out: Kd, binding dissociation constant of 3H-Ro15-1788
Quantity name: pKd
Please report pKd as the negative decimal logarithm of the molar concentration, giving only the number.

benzodiazepine site of the GABAA receptor / pKd / CCOC(=O)c1ncn2c1CN(C)C(=O)c1cc(F)ccc1-2 [^3H-Ro15-1788, reference compound] : value?
9.00

---

Recorded pKi by entry
# Assayed target: benzodiazepine site of the GABAA receptor
# Assay info: Ligand binding assay of Example 6 (3H-Ro15-1788 competition, purified rat cortical membranes)
# Cond: ligand binding assay of Example 6; Table 5 Ki
pKi: −log10 of the molar value.

Guide cases for pKi, answers given:
>>> df
                               input_smiles  endpoint_result
0  CCCc1c(Cn2ccnc2-c2cccc(F)n2)nc(C)n2nc(CC)nc12           > 6.00
1  CCCc1c(Cn2ccnc2-c2cccc(C#N)n2)ncn2nc(COCC)nc12           > 6.00

Attention now shifts to the item below.
Bench note: what pKi did CCCc1c(Cn2cc(Cl)nc2-c2ncccc2F)ncn2ncnc12 show?
> 6.00
